Numbers sourced from patent US20090318527A1.

target: human 5-HT2A receptor (Homo sapiens); experiment: Intracellular calcium flux assay, HEK 293 cells stably expressing 5-HT2A; conditions: calcium flux; at least three independent experiments, each in triplicate; read-out: 5-HT2A mean EC50 ± SD;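 also: fluorescent calcium dye read on FLIPR Tetra, peak signal above baseline within 60 s after compound addition, seven concentrations spanning 10 pM to 10 µM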
Sequence (P28223 whole entry): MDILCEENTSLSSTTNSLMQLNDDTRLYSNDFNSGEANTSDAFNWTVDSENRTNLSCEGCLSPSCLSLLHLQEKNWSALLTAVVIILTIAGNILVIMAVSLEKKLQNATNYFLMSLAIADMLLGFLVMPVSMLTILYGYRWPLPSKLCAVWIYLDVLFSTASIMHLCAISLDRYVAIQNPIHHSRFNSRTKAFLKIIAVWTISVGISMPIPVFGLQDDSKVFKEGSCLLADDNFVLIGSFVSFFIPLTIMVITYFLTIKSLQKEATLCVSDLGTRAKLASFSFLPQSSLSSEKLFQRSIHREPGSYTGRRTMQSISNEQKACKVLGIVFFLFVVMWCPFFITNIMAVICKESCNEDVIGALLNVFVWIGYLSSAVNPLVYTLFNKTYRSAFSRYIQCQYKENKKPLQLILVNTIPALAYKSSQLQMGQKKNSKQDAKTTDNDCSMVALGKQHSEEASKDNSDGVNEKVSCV
property name: EC50

INSERT INTO measurements (compound, assayed_target, experimental_result) VALUES
  ('COc1cc(F)cc2c1c(CCN(C)C)cn2C.Cl [Compound 31, hydrochloride]', 'human 5-HT2A receptor (Homo sapiens)', '> 10 µM'),
  ('CCn1cc(CCN(C)C)c2c(OC)ccc(F)c21 [Compound 23]', 'human 5-HT2A receptor (Homo sapiens)', '> 10 µM'),
  ('CCOc1cc(F)cc2c1c(CCN(C)C)cn2CC [Compound 35]', 'human 5-HT2A receptor (Homo sapiens)', '> 10 µM'),
  ('CCOc1ccc(F)c2c1c(CCN(C)C)cn2CC [Compound 24]', 'human 5-HT2A receptor (Homo sapiens)', '> 2 µM'),
  ('CCOc1ccc(F)c2c1c(CCN(C)C)cn2C [Compound 26]', 'human 5-HT2A receptor (Homo sapiens)', '1.49 µM'),
  ('CCOc1cc(F)cc2c1c(CCN(C)C)cn2C.Cl [Compound 32, hydrochloride]', 'human 5-HT2A receptor (Homo sapiens)', '> 10 µM'),
  ('COc1ccc(F)c2c1c(CCN(C)C)cn2C [Compound 22]', 'human 5-HT2A receptor (Homo sapiens)', '> 10 µM');

* * *

property name: melting point

INSERT INTO assay_data (smiles_code, experimental_result) VALUES
  ('CCCOc1cc(F)cc2c1c(CCN(C)C)cn2C.Cl', '195.4 to 196.8 °C'),
  ('COc1c(F)cc(F)c2c1c(CCN(C)C)cn2C.Cl', '185 to 189 °C'),
  ('CCCn1cc(CCN(C)C)c2c(OCC)cc(F)cc21.Cl', '154 to 156 °C'),
  ('CN(C)CCc1cn(C)c2c(F)ccc(F)c12.Cl', '209 to 210 °C'),
  ('CCCn1cc(CCN(C)C)c2c(OC)cc(F)cc21.Cl', '119.8 to 121.3 °C');

* * *

molecular target: 5-HT2C (Homo sapiens); test: Intracellular calcium flux assay, HEK 293 cells stably expressing 5-HT2C; type: cell-based; set-up: expressed in transfected cells; host or cells: HEK 293; details: HEK293, read-out: 5-HT2C efficacy as percentage of the maximal 5-HT response ± SD, at least three independent experiments, entries marked a (42, 50, 51, 52) single measurements;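 also: calcium dye fluorescence read on FLIPR Tetra as peak signal above baseline within 60 s of compound addition, seven concentrations from 10 pM to 10 µM, each in triplicate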
Sequence (P28335 33-458): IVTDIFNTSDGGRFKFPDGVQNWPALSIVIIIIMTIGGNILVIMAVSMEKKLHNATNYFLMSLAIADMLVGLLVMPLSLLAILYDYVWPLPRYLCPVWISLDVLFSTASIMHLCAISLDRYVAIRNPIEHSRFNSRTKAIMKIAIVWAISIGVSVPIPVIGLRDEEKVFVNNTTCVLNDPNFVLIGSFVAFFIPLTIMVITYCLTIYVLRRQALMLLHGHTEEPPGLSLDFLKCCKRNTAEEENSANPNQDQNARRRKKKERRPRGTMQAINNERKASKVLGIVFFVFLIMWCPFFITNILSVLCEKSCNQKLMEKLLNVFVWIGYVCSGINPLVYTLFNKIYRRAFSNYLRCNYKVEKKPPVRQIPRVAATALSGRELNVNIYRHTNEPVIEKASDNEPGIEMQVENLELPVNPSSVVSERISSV
property name: Emax (%)

INSERT INTO assay_data (compound, property_name, experimental_result) VALUES
  ('CN(C)CCc1cn(C)c2cc(F)cc(OCc3ccccc3)c12', 'Emax', 99),
  ('CCCn1cc(CCN(C)C)c2c(OC)c(F)ccc21.Cl [Compound 42, hydrochloride]', 'Emax', 34),
  ('CCCOc1ccc(F)c2c1c(CCN(C)C)cn2CC', 'Emax', 75),
  ('CCOc1cc(F)cc2c1c(CCN(C)C)cn2C.Cl [Compound 32, hydrochloride]', 'Emax', 85),
  ('CCCOc1cc(F)cc2c1c(CCN(C)C)cn2CCC.Cl [Compound 39, hydrochloride]', 'Emax', 65),
  ('CCn1cc(CCN(C)C)c2c(OC)ccc(F)c21', 'Emax', 71),
  ('COc1c(F)cc(F)c2c1c(CCN(C)C)cn2C.Cl [Compound 58, hydrochloride]', 'Emax', 51),
  ('CCCn1cc(CCN(C)C)c2c(OC)ccc(F)c21', 'Emax', 45),
  ('CCOc1ccc(F)c2c1c(CCN(C)C)cn2CC', 'Emax', 77),
  ('CN(C)CCc1cn(C)c2ccc(F)c(OCc3ccccc3)c12.Cl [Compound 52, hydrochloride]', 'Emax', 79),
  ('CN(C)CCc1cn(C)c2c(F)ccc(OCc3ccccc3)c12', 'Emax', 81),
  ('CCCOc1ccc(F)c2c1c(CCN(C)C)cn2CCC', 'Emax', 37),
  ('CCCn1cc(CCN(C)C)c2cc(F)c(O)cc21', 'Emax', 70),
  ('CCCn1cc(CCN(C)C)c2c(OCC)c(F)ccc21.Cl [Compound 61, hydrochloride]', 'Emax', 38),
  ('CCCOc1ccc(F)c2c1c(CCN(C)C)cn2C', 'Emax', 75),
  ('COc1cc(F)cc2c1c(CCN(C)C)cn2C.Cl [Compound 31, hydrochloride]', 'Emax', 87),
  ('CCCn1cc(CCN(C)C)c2c(OCC)ccc(F)c21', 'Emax', 43),
  ('COc1ccc(F)c2c1c(CCN(C)C)cn2C', 'Emax', 82),
  ('COc1ccc(Br)c2c1c(CCN(C)C)cn2C.Cl [Compound 73, hydrochloride]', 'Emax', 48),
  ('CCCOc1cc(F)cc2c1c(CCN(C)C)cn2C.Cl [Compound 33, hydrochloride]', 'Emax', 91);
